# Tested on: HL-60(TB) leukemia
# assay comment: NCI-60 one-dose screen, 48 h (100 = growth as untreated, 0 = no growth, -100 = all killed)
# experimental setup: 10 µM unless noted
About 83,000 compounds went through this panel and 20% of them were active in at least one assay; those are over-represented in the sample as a whole.
We begin with a simple list: items and their reported growth.
Note: unit % is implicit; provide only the numeric part.

Take a look at these entries with their results.
compound	tested system	readout kind	observed result
Fc1ccc2c(c1)c(-c1nc(-c3c[nH]c4ncccc34)cs1)cn2CCCCN1CCCCC1	HL-60(TB) leukemia	growth	-70
Brc1ccc2c(c1)c(-c1nc(-c3c[nH]c4ncccc34)cs1)cn2CCN1CCCCC1	HL-60(TB) leukemia	growth	66
CC(=O)OC[C@]1(C)C=C2C(=O)[C@](C)(O)C3(CC3)C(C)=C2[C@H]1OC(=O)N(C)CCN(C)C(=O)OC(C)(C)C	HL-60(TB) leukemia	growth	-37
O=C(CCCCCCC(=O)Nc1ccc(N(CCCl)CCCl)cc1)NO	HL-60(TB) leukemia	growth	18.4
COc1cc(C=C2c3ccccc3C(=O)c3ccccc32)ccc1OCCCCOc1cc2c(cc1OC)C(=O)N1CCCC1C=N2 (stereo unspecified)	HL-60(TB) leukemia	growth	-21.3

[in] What value of growth has been reported for the following compound? CC(C)CCC(=O)O[C@H]1CC[C@H]2[C@@H]3CCC4=CC(=O)CC[C@]4(C)[C@H]3CC[C@]12C
[out] 108

[in] Another: O=C1C2CC=CCC2C(=O)N1SC(Cl)(Cl)Cl (stereo unspecified)
[out] 46.2

[in] Another: CC(=O)O[C@H]1C(=O)[C@@]2(C)[C@H]([C@H](OC(=O)c3ccccc3)[C@]3(O)C[C@H](OC(=O)[C@H](OC(=O)OC[C@@H]4COC(C)(C)O4)[C@@H](NC(=O)c4ccccc4)c4ccccc4)C(C)=C1C3(C)C)[C@]1(OC(C)=O)CO[C@@H]1C[C@@H]2O
[out] 4.01

[in] Another: NC(CCl)CCl
[out] 123

[in] Another: CC1(C)C(C(=O)c2cn(CCCCF)c3ccccc23)C1(C)C
[out] 76

[in] Another: COC(=O)[C@@H](C)C[C@H](Cc1ccccc1)NC(=O)c1nc([C@@H](C[C@H](C(C)C)N(C)C(=O)[C@@H](NC(=O)[C@H]2CC(=O)CCN2C)C(C)C)OC(C)=O)sc1C(C)C
[out] -36.7
